- Test system: giant foxtail (Setaria faberii)
- Assay Summary: Test A preemergence
- Assay type: in vivo
- Test Context: Setaria faberi, pre-emergence, 240 h, 125 g ai/ha, preemergence; visual rating after approx. 10 d; 0 to 100 scale where 0 is no effect and 100 is complete control; read-out: Plant response rating, Foxtail, Giant
This section presents molecules with their documented pest or weed control at 125 g/ha values.

Example results:
Cc1cc([C@H]2CNC(=O)[C@@H]2C(=O)Nc2ccc(F)cc2F)ccc1F [Compound 718]
70%
COc1cc([C@H]2CN(C)C(=O)[C@@H]2C(=O)Nc2ccccc2F)ccc1C(F)(F)F [Compound 768]
90%
CS(=O)(=O)c1ccccc1NC(=O)[C@H]1C(=O)NC[C@@H]1c1ccc(OC(F)F)cc1 [Compound 787]
70%
CSc1ccccc1NC(=O)[C@H]1C(=S)NC[C@@H]1c1ccc(C)c(C)c1 [Compound 766]
0%
Cc1ccc([C@H]2CNC(=S)[C@@H]2C(=O)Nc2cccc(F)c2C)cc1C [Compound 764]
70%

Give the reported value of pest or weed control at 125 g/ha for this record: Cc1cc(F)cc([C@H]2CN(C)C(=O)[C@@H]2C(=O)Nc2ccc(F)c(F)c2F)c1 [Compound 801]
90%

Provide only the value of recorded pest or weed control at 125 g/ha for CC(F)(F)c1cccc([C@H]2CNC(=O)[C@@H]2C(=O)Nc2ccccc2S(C)(=O)=O)c1 [Compound 780]
90%

All values here come from patent US12077503B2.
